Exercise: state measured Ki for each of the compounds provided.
tested on: human GABA A receptor α5β3γ2 (α5 subunit) (Homo sapiens, UniProt P18507+P31644)
Sequence (P31644 32-462): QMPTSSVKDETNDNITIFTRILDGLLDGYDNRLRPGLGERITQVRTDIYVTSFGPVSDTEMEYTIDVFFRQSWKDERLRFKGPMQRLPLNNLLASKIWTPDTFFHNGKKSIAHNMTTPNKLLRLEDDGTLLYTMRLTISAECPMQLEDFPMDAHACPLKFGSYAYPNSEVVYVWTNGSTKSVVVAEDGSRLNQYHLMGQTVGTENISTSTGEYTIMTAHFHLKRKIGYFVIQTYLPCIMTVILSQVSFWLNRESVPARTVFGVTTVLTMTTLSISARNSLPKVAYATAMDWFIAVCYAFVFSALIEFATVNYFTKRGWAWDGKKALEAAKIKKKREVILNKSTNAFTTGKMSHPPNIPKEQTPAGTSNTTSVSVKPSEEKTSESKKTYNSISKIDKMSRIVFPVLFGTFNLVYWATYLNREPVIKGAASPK
Sequence (P28472 26-473 partner): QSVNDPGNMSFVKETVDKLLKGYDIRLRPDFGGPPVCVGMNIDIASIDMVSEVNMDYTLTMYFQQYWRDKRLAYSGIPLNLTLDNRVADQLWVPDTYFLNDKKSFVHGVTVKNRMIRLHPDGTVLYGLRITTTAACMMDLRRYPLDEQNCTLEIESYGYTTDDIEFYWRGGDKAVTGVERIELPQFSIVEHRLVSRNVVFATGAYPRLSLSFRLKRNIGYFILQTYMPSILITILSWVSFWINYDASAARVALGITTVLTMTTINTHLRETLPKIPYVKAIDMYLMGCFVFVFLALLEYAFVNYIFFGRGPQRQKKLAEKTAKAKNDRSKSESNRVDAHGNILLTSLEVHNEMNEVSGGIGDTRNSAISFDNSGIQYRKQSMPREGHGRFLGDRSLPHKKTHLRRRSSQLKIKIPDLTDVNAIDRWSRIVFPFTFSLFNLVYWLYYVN
Sequence (P18507 40-475): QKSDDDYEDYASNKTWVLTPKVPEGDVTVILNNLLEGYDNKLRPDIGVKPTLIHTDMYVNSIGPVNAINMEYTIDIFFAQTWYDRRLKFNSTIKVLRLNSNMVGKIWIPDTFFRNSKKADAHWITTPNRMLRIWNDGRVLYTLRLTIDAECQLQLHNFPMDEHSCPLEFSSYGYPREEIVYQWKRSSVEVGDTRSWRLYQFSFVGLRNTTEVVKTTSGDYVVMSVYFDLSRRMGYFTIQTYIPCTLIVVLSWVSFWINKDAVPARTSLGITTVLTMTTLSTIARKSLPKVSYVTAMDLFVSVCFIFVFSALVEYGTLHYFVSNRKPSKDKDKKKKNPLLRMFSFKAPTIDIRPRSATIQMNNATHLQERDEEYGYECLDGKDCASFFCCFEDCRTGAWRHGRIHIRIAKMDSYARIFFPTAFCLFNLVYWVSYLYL
assay: biochemical
Assay type: binding
condition parameters: competition for [3H]flumazenil binding, HEK293 cells transiently expressing human receptors; means of two determinations; read-out: hKi
Numbers only, in nM.

Some compounds with known Ki results, for comparison:
Cc1onc(-c2ccccc2)c1COc1ccc(NC(=O)C2CCOCC2)nn1 = 8.7
CCOC(=O)c1ccc(OCc2c(-c3ccc(F)cn3)noc2C)nn1 = 1.2
CCNC(=O)c1ccc(OCc2c(-c3ccncc3)noc2C)nn1 = 14.2
Cc1onc(-c2ccc(F)cc2)c1COc1ccc(C(=O)N2CCS(=O)(=O)CC2)nn1 = 11.7
Cc1onc(-c2ccccc2)c1COc1ccc(Cl)nn1 = 9.6
CCOC(=O)c1ccc(OCc2c(-c3ccccn3)noc2C)nn1 = 2.9
Cc1onc(-c2ccccc2)c1COc1ccc(Br)nn1 = 7.6
Cc1onc(-c2ccccn2)c1COc1ccc(Cl)nn1 = 3.8

Now examine the next entry.
# query: Ki of entry CCNC(=O)c1ccc(OCc2c(-c3cccc(F)c3)noc2C)nn1
6.1
